# assayTarget: T1, lactate dehydrogenase (LDH)
# T1 construct: Coated at 500 ng/well as non-specific target; also called LDH polypeptide
# methodSummary: phage ELISA
quantity: LDH (OD)
Answer with a number only, understood to be in OD.

Which LDH (OD) value is on record for GAIRLSGAAWTASRTGGRASAAAGAPVPYPDPLEPRP [DGI-2-20F-PP-E7] ?
0.9

Dear colleague, I am looking for the recorded LDH (OD) of the following binder: LSLEGGWMWDTKGGDGGSAQAAAGAPVPYPDPLEPRP [DGI-2-20R-4-F93]
1.1

Could you tell me which LDH (OD) is on file for SRELGKWGRLWQDWSSGNFSAAAGAPVPYPDPLEPRP [DGI-2-20R-3-C11] ?
1

// query LDH (OD) value for entry GRAGTSMTELVAWGFVQRVGAAAGAPVPYPDPLEPRP [DGI-2-20F-PP-H10]
0.7

Returns the measured LDH (OD) for the input binder. Input: WWREWVDGSLRGGGGTVLKDAAAGAPVPYPDPLEPRP [DGI-2-20R-3-A122]
1

Name the recorded LDH (OD) for VLQRSLWKDWVDGVMHGGGSRGVAAAGAPVPYPDPLEPRP [DGI-2-20R-3-A7] .
0.9

May I ask what LDH (OD) has been recorded for DGKHLTKWSGRGWWSAWVGGAAAGAPVPYPDPLEPRP [DGI-2-20R-3-B12] ?
1

So what does the record say about LDH (OD) for RQRSGGRWVVDRVTRVASTSPAAAGAPVPYPDPLEPRP [DGI-2-20F-PP-B12] ?
1.1

Look up LDH (OD): DGI-2-40F-3-C424 (peptide) peptide: TVKFQGVVQERSRIAGFRYCGDHAVSWGLAGCPALRDKLQAAAGAPVPYPDPLEPRP
1.1

What measured LDH (OD) goes with LFRFSGTGMASLPCVGWHLVAAAGAPVPYPDPLEPRP [DGI-2-20F-PP-B6] ?
1

Reported LDH (OD), binder REFFNQASRGAWGYMFREWVEGAAAGAPVPYPDPLEPRP [DGI-2-40F-3-A1] : ____
0.9

What value of measured LDH (OD) is listed for RRFVRCSVPVALRSAVPVSVAAAGAPVPYPDPLEPRP [DGI-2-20F-PP-A10] ?
1

Report LDH (OD) for FRVALLSVSAGPCEGSGNTAAAGAPVPYPDPLEPRP [DGI-2-20F-PP-H7] please.
0.8
